Assay: Drug distribution in Sprague-Dawley rat kidney at 3 mg/kg, po measured at 6 hrs by LC-MS/MS analysis
Format: ADME, organism-based
Conditions: read-out: Ct
PROPERTY_MEASURED: concentration at 6 h (ng/g)
Reply numerically in ng/g, unit not repeated.

**Q:** What value of concentration at 6 h has been recorded for this entry: CC(=O)N1CCc2c(c(N3CCCc4cc(-c5cnn(C)c5)c(C(F)F)cc43)nn2[C@H]2CC[C@H](CN3Cc4cc5c(cc4C3)C(=O)N(C3CCC(=O)NC3=O)C5=O)CC2)C1 (stereo partly specified)
**A:** 59.2

* * *

Test: Drug distribution in SCID mouse plasma at 1 mg/kg, po measured at 24 hrs by LC-MS/MS analysis
Type: ADME, organism-based
PROPERTY_MEASURED: concentration at 24 h (ng/mL)
Reply numerically in ng/mL, unit not repeated.

**Q:** What value of concentration at 24 h has been recorded for this entry: CC(=O)N1CCc2c(c(N3CCCc4cc(-c5cnn(C)c5)c(C(F)F)cc43)nn2[C@H]2CC[C@H](CN3Cc4cc5c(cc4C3)C(=O)N(C3CCC(=O)NC3=O)C5=O)CC2)C1 (stereo partly specified)
**A:** 3.3

* * *

Test: Drug distribution in SCID mouse spleen at 0.3 mg/kg, po measured at 1 hr by LC-MS/MS analysis
Format: ADME, organism-based
Conditions: read-out: Ct
PROPERTY_MEASURED: concentration at 1 h (ng/mL)
Reply numerically in ng/mL, unit not repeated.

**Q:** What value of concentration at 1 h has been recorded for this entry: CC(=O)N1CCc2c(c(N3CCCc4cc(-c5cnn(C)c5)c(C(F)F)cc43)nn2[C@H]2CC[C@H](CN3Cc4cc5c(cc4C3)C(=O)N(C3CCC(=O)NC3=O)C5=O)CC2)C1 (stereo partly specified)
**A:** 91

* * *

Assay: Drug distribution in SCID mouse tumor at 1 mg/kg, po measured at 6 hrs by LC-MS/MS analysis
Format: ADME, organism-based, Neoplasm
Settings: read-out: Ct
PROPERTY_MEASURED: concentration at 6 h (ng/g)
Reply numerically in ng/g, unit not repeated.

**Q:** What value of concentration at 6 h has been recorded for this entry: CC(=O)N1CCc2c(c(N3CCCc4cc(-c5cnn(C)c5)c(C(F)F)cc43)nn2[C@H]2CC[C@H](CN3Cc4cc5c(cc4C3)C(=O)N(C3CCC(=O)NC3=O)C5=O)CC2)C1 (stereo partly specified)
**A:** 64.3
